The entries below are paired with their reported GI50.
Test system: HCT-116 colon
assay procedure: NCI tumour cell line growth inhibition, 48 h

Recorded results for 5 molecules are shown here.
- compound string: "CC(C)c1ccc2c(N=Nc3ccc(S(N)(=O)=O)cc3)c(O)[nH]c2c1"
  system: "HCT-116 colon"
  measurement type: "GI50"
  value measured: "11 µM"
- compound string: "CCCCCCNC(=O)c1cc(C#Cc2cc(OC)ccc2OC)ccc1OC"
  system: "HCT-116 colon"
  measurement type: "GI50"
  value measured: "6.9 µM"
- compound string: "CCCn1cc(C2=C(c3cn(C)c4ccccc34)C(=O)NC2=O)c2ccccc21"
  system: "HCT-116 colon"
  measurement type: "GI50"
  value measured: "1.24 µM"
- compound string: "COc1ccc(-c2cc(-c3ccc(O)cc3)nc3nc(=S)[nH]c(N)c23)cc1"
  system: "HCT-116 colon"
  measurement type: "GI50"
  value measured: "15.4 µM"
- compound string: "Nc1ccccc1/C=N\\Nc1ccccc1"
  system: "HCT-116 colon"
  measurement type: "GI50"
  value measured: "> 100 µM"

Proceed to the following item.
Asked: Report GI50 for O=C(CCc1nnc(-c2c(Cl)cccc2Cl)o1)c1nc2ccccc2[nH]1 please.
Given back: 3.33 µM

----------
Tested on: SN12C renal
assay procedure: NCI tumour cell line growth inhibition, 48 h
measurement type: TGI

Example results:
- compound: "COC(=O)c1cc(C)n2c1CS[C@@H]2c1ccccc1"
  TGI: "> 100 µM"
- compound: "Cc1c(/C=N/NC(=O)c2ccccc2)c(=O)n(-c2ccccc2)n1C"
  TGI: "> 100 µM"
- compound: "Fc1ccc(CNc2c3ccccc3nc3ccccc23)cc1"
  TGI: "10.5 µM"
- compound: "O=C1Nc2cc(Cl)ccc2Oc2cc(Oc3ccccc3)ccc21"
  TGI: "71.1 µM"
- compound: "Cc1cc(=O)oc2c(CNC(C)C(=O)O)c(O)ccc12 (stereo unspecified)"
  TGI: "> 100 µM"

Asked: For the compound COc1ccc(C(=O)C(c2ccc(OC)cc2)C2C(=O)Oc3ccccc32)cc1 (stereo unspecified) , what TGI is on record?
Given back: > 100 µM

Asked: # TGI lookup, item O=S(=O)(O)c1ccc(Cl)cc1.[Cd]
Given back: > 100 µM

Asked: Any idea what its TGI is? The compound is CCCN(CCC)c1ccc(C=O)cc1
Given back: > 100 µM

Asked: I have this compound here, O=C(Nc1ncc(Cc2ccccc2)s1)c1ccc2c(c1)OCCO2 , and I need its recorded TGI.
Given back: > 100 µM

Asked: Entry under review: COc1ccccc1CNCCCN1C(=O)c2ccc3c4c(ccc(c24)C1=O)C(=O)N(CCCNCCCCNCCCCN)C3=O . Reported TGI?
Given back: 5.9 µM

Asked: Entry O=c1c2cc(Br)ccc2[nH]c(=S)n1-c1ccc(Br)cc1 has what TGI?
Given back: > 100 µM

----------
Recorded GI50 by entry
Test system: MDA-MB-435

- molecule: "O=C(c1ccccc1)c1ccc(Cl)c([N+](=O)[O-])c1"
  system: "MDA-MB-435"
  value measured: "4.53 µM"
- molecule: "Nc1ccccc1/C=N\\Nc1ccccc1"
  system: "MDA-MB-435"
  value measured: "4.5 µM"
- molecule: "CC(C)c1ccc2c(N=Nc3ccc(S(N)(=O)=O)cc3)c(O)[nH]c2c1"
  system: "MDA-MB-435"
  value measured: "> 23.2 µM"
- molecule: "COc1ccc(Nc2c3c4c(cccc4[nH]c2=O)C(=O)c2ccccc2-3)cc1"
  system: "MDA-MB-435"
  value measured: "0.0335 µM"
- molecule: "C=C1C(=O)O[C@H]2[C@H]1CC/C(C=Nc1ccc(C(F)(F)F)cc1N)=C\\CC[C@@]1(C)O[C@@H]21"
  system: "MDA-MB-435"
  value measured: "4.74 µM"

Kindly review the next molecule as well.
Asked: Entry O=C(Nc1ncc(Cc2ccccc2)s1)c1ccc2c(c1)OCCO2 has what GI50?
Given back: 0.0187 µM

----------
Test system: DMS 114 small cell lung
assay procedure: NCI tumour cell line growth inhibition, 48 h
Quick reference: TGI of the listed items.

- compound: "O=c1oc2c3ccc4ccccc4c3n(CCN3CCOCC3)c2c2ccccc12"
  value measured: "> 100 µM"
- compound: "Cc1ccccc1N=Cc1ccc(N(CCC#N)S(=O)(=O)c2ccccc2)cc1"
  value measured: "> 100 µM"

Note: attention shifts to another entry.
Asked: Entry under review: Cc1c(/C=N/NC(=O)c2ccccc2)c(=O)n(-c2ccccc2)n1C . Reported TGI?
Given back: > 100 µM

----------
System: HCC-2998 colon
assay procedure: NCI tumour cell line growth inhibition, 48 h
TGI reference

Illustrative cases are given below, each with its answer.
- compound: "O=C(CC1(O)C(=O)Nc2c(Cl)cccc21)c1ccccc1 (stereo unspecified)"
  system: "HCC-2998 colon"
  TGI: "> 100 µM"
- compound: "CC(=O)Oc1ccc2ccc(=O)oc2c1OC(C)=O"
  system: "HCC-2998 colon"
  TGI: "> 100 µM"
- compound: "O=c1c2cc(Br)ccc2[nH]c(=S)n1-c1ccc(Br)cc1"
  system: "HCC-2998 colon"
  TGI: "> 100 µM"

// next entry
Asked: # lookup: TGI of O=C1NCC2(CCN(Cc3ccccc3)CC2)N1
Given back: > 100 µM

----------
System: 786-0 renal
assay procedure: NCI tumour cell line growth inhibition, 48 h
measurement type: TGI

Some compounds with recorded TGI:
- compound: "CN(C)c1ccc(/C=C(\\C#N)c2cc3ccccc3n2C)cc1"
  measurement type: "TGI"
  value measured: "> 100 µM"
- compound: "CCOC(=O)C1=C(N)Oc2c(sc3c(C)cccc23)C1c1ccc(Cl)cc1 (stereo unspecified)"
  measurement type: "TGI"
  value measured: "16.8 µM"
- compound: "[N-]=[N+]=Nc1ccccc1-[n+]1noc([O-])c1Br"
  measurement type: "TGI"
  value measured: "> 100 µM"

Asked: Give TGI (786-0 renal) of the following compound: CC1=Nc2nc3ccccc3n2C(C)(C)C1
Given back: > 100 µM

Asked: Find TGI (786-0 renal) for the entry COC1OCC(OS(=O)(=O)c2ccc(C)cc2)C(OC(=O)c2ccccc2)C1OC(=O)c1ccccc1 (stereo unspecified)
Given back: > 100 µM

Asked: Give TGI (786-0 renal) of the following compound: O=C(Nc1ccc(Cl)c(Cl)c1)C(=O)Nn1c(=S)[nH]c2ccccc2c1=O
Given back: > 100 µM

----------
System: NCI-H226 lung
assay procedure: NCI tumour cell line growth inhibition, 48 h
measurement type: TGI

Consider the following illustrative entries.
- compound: "COc1ccc(-c2nc(N(C)C)c3ccccc3n2)cc1"
  value measured: "21.8 µM"
- compound: "COc1cc(-c2cc(/C=C/C(=O)c3ccc4c(c3)OCO4)[nH]n2)cc(OC)c1OC"
  value measured: "> 100 µM"
- compound: "C=C1C(=O)OC2C[C@H](C)C3CC(=O)C(C)=C3CC12 (stereo not given in full)"
  value measured: "30.6 µM"
- compound: "CC/C(Cl)=N\\OC(=O)Nc1ccccc1OC(F)(F)F"
  value measured: "38.1 µM"
- compound: "CCCN(CCC)c1ccc(C=O)cc1"
  value measured: "> 100 µM"
- compound: "CCOc1ccc(C2=C(Cl)c3cc(OC)c(OC)cc3C2Cl)cc1 (stereo not given)"
  value measured: "> 100 µM"
- compound: "O=C(Cn1c(C(=O)/C=C/c2ccco2)nc2ccccc21)c1ccc(Cl)cc1"
  value measured: "> 100 µM"
- compound: "Fc1ccc(-c2ncn(C3CCNCC3)c2-c2ccnc(Oc3ccccc3)n2)cc1"
  value measured: "> 25 µM"

Asked: So what TGI did CCOC(=O)NC(=O)c1cn(CCCCCOC(=O)NCCCCCCNC(=O)OCCCCCn2cc(C(=O)NC(=O)OCC)c(=O)[nH]c2=O)c(=O)[nH]c1=O get with NCI-H226 lung?
Given back: > 100 µM

Asked: Notebook entry, NCI-H226 lung assay: TGI of O=C1C=C(c2c(-c3ccccc3)[nH]c3ccccc23)C(=O)N1c1ccccc1 = ?
Given back: 68.5 µM

----------
Test system: SNB-19 CNS
assay procedure: NCI tumour cell line growth inhibition, 48 h
Listed here are compounds together with their documented TGI.

Please review the entries below; each comes with its answer.
- compound: "O=c1[nH]c(=O)n(C2CC(O)C(COP(=O)(O)OC3CC(n4cc(F)c(=O)[nH]c4=O)OC3COP(=O)(O)OC3CC(n4cc(F)c(=O)[nH]c4=O)OC3COP(=O)(O)OC3CC(n4cc(F)c(=O)[nH]c4=O)OC3COP(=O)(O)OC3CC(n4cc(F)c(=O)[nH]c4=O)OC3COP(=O)(O)OC3CC(n4cc(F)c(=O)[nH]c4=O)OC3COP(=O)(O)OC3CC(n4cc(F)c(=O)[nH]c4=O)OC3COP(=O)(O)OC3CC(n4cc(F)c(=O)[nH]c4=O)OC3COP(=O)(O)OC3CC(n4cc(F)c(=O)[nH]c4=O)OC3COP(=O)(O)OC3CC(n4cc(F)c(=O)[nH]c4=O)OC3CO)O2)cc1F (configuration not stated)"
  TGI: "> 50 µM"
- compound: "CC(=O)Nc1ccc(C2=N/C(=C\\c3ccc(Cl)c(Cl)c3)C(=O)O2)cc1"
  TGI: "> 100 µM"
- compound: "COC(=O)CSc1ccccc1"
  TGI: "> 100 µM"
- compound: "COc1ccc2nc3cccc([N+](=O)[O-])c3c(NCCN(CCO)CCO)c2c1"
  TGI: "1.45 µM"
- compound: "Cc1c2ccccc2c(CO)c2cc(F)c3ccccc3c12"
  TGI: "> 100 µM"
- compound: "CCCCC(NC(=O)CC)C(=O)O (configuration not stated)"
  TGI: "> 100 µM"
- compound: "Cc1ccc(C2(C)NC(=S)N(NC(N)=S)C2=S)cc1 (configuration not stated)"
  TGI: "> 100 µM"
- compound: "COc1cc(C2c3cc4c(cc3OC3(O)COC(=O)C23)OCO4)cc(OC)c1OC (configuration not stated)"
  TGI: "> 100 µM"

Asked: Request the reported TGI associated with Nc1ncnc2c1c(-c1cccc(OCc3ccccc3)c1)cn2C1CC(CN2CCCC2)C1 (configuration not stated)
Given back: 16.9 µM

Asked: Entry under review: C=C1C(=O)O[C@H]2[C@H]1CC/C(C=Nc1ccc(C(F)(F)F)cc1N)=C\CC[C@@]1(C)O[C@@H]21 . Reported TGI?
Given back: 26.2 µM

Asked: // query TGI value for entry CC(=O)OCc1cccc(O)c1C(=O)CCC=C(C)C
Given back: > 100 µM

Asked: Request the reported TGI associated with CCCCOP(=O)(OCCCC)/C(C#N)=C/c1ccc(C)o1
Given back: > 100 µM

Asked: Need TGI, item CCCCCCCCCCCCOC1C(CNC(=O)C2OC3OC(C)(C)OC3C2NC(=O)CN2CCN(c3ccccn3)CC2)OC2OC(C)(C)OC21 (configuration not stated)
Given back: 7.99 µM

Asked: Requested field: TGI. Item: O=C1C=C(c2c(-c3ccccc3)[nH]c3ccccc23)C(=O)N1c1ccccc1
Given back: 66.1 µM

Asked: State the recorded TGI for this entry: O=c1oc2c3ccc4ccccc4c3n(CCN3CCOCC3)c2c2ccccc12
Given back: > 100 µM

Asked: Requested field: TGI. Item: COc1ccc(-c2cc(-c3ccc(O)cc3)nc3nc(=S)[nH]c(N)c23)cc1
Given back: > 100 µM

Asked: What value of TGI has been reported for the following compound? CC(C)c1ccc2c(N=Nc3ccc(S(N)(=O)=O)cc3)c(O)[nH]c2c1
Given back: > 25 µM
